# systemTested: CXCL6 (human)
# protocolSummary: BLI
readout: pKd
Note on units: pKd is unitless, being -log10 of a concentration expressed in mol/L.

Use the examples below as a reference point.
- binder: "Evasin 3 (EVA3) (natural protein, also: glycosylated) DGGLVSTIESRTSGDGADNFDVVSCNKNCTSGQNECPEGCFCGLLGQNKKGHCYKIIGNLSGEPPVVRR"
  pKd: 8.99
- binder: "P1100_IXORI (natural protein) GSKGSSASQSSDNSVVAKFCDTNCTINEGGKWTECKGGCFCVHVGNETVGRCMKLDGDYDYPSPKPEE"
  pKd: 7.82

Now let's try a different one.
Problem: For the binder P942 (natural protein, also: glycosylated) DGGNQLSGPQSSANSNEAVFCDTNCTQGTDEAWSGCRGDCFCVYVGNSTEGRCMMLSGDFDYSTPGAED , give its reported pKd.
Solution: 8.14

The reported measurements were obtained from paper PMC6643034.
